Test: chemical genetic growth profiling, strain panel (AID 1159580);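 note: tested at 20 µM; growth read once vehicle control cultures reached saturation at 30 °C; 1 = growth at the plate median or of vehicle wells; lower values mean less growth of the strain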
Conditions: S. cerevisiae deletion strains, growth OD, locus YNL322C, strain KRE1, active compounds read low
The campaign covered roughly 5,500 compounds. About 2,000 (36%) were called active. Inconclusive results (about 18%) are left out. Some of the results follow.
VALUE_TYPE: normalized growth

>>> reported_value("C[C@@H](N)Cc1cnc[nH]1")
1.02
>>> reported_value("N#CC(C#N)=CNc1cccc(N)n1")
1.01
>>> reported_value("CCN(CC)c1ccc(NC(=O)c2c(F)cccc2F)c(N(CC)CC)n1")
0.987
>>> reported_value("CCOP(=S)(OCC)Oc1cc(C)nc(C(C)C)n1")
0.978
>>> reported_value("O=C(Nc1cc2cc([N+](=O)[O-])ccc2oc1=O)c1c(F)cccc1F")
1.01
>>> reported_value("COC1=C[C@@H]2[C@@H]3Cc4ccc(OC)c(O)c4[C@]2(CCN3C)CC1=O")
0.98

* * *

Assay: chemical genetic growth profiling, strain panel (AID 1159580)
Details: S. cerevisiae deletion strains, growth OD, locus YER155C, strain BEM2, active compounds read low
The whole screen tested about 5,500 compounds, of which about 2,000 (36%) were called active. Inconclusive results (about 18%) are left out. Some of the results follow.
VALUE_TYPE: normalized growth

>>> reported_value("COc1ccc2[nH]cc(CCN)c2c1")
0.993
>>> reported_value("CC1(C)CC[C@@]2(C(=O)O)C(C1)C1=CCC3[C@@]4(C)CC[C@H](O)C(C)(C)C4CC[C@@]3(C)[C@]1(C)C[C@@H]2O (stereo not given in full)")
1.03
>>> reported_value("C[C@@H]1CC[C@]2(C(=O)O)CC[C@]3(C)C(=CCC4[C@@]5(C)CC[C@H](O)C(C)(C)C5CC[C@]43C)C2[C@H]1C (stereo not given in full)")
1.02
>>> reported_value("NC(N)=N/N=C/c1c(Cl)cccc1Cl")
1
>>> reported_value("C[C@H]1[C@H](C)CC[C@]2(CO)CC[C@]3(C)C(=CCC4[C@@]5(C)CC[C@H](O)C(C)(C)C5CC[C@]43C)[C@H]12 (stereo not given in full)")
1.02

* * *

Assay: chemical genetic growth profiling, strain panel (AID 1159580)
Conditions: S. cerevisiae deletion strains, growth OD, locus YER123W, strain YCK3, active compounds read low
Out of some 5,500 compounds screened, about 2,000 (36%) were called active. Inconclusive results (about 18%) are left out. The list shows a part of the results.
Each record here notes measured normalized growth.
VALUE_TYPE: normalized growth

>>> reported_value("O=C(c1cccs1)N(Cc1cccnc1)Cc1ccc(Cl)cc1Cl")
0.887
>>> reported_value("CC(C)(C)C(=O)N(Cc1cccnc1)Cc1ccc(Cl)cc1Cl")
0.842
>>> reported_value("O=C(c1ccc(Cl)cc1)N(Cc1ccccc1)Cc1cccnc1")
0.748
>>> reported_value("O=S(=O)(c1ccc(Cl)cc1)N(Cc1cccnc1)Cc1ccc(Cl)cc1Cl")
0.469

* * *

Assay: chemical genetic growth profiling, strain panel (AID 1159580);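 note: tested at 20 µM; growth read once vehicle control cultures reached saturation at 30 °C; 1 = growth at the plate median or of vehicle wells; lower values mean less growth of the strain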
Conditions: S. cerevisiae deletion strains, growth OD, locus YMR058W, strain fet3, active compounds read low
Screen size: about 5,500 compounds; about 2,000 (36%) were called active. About 18% were inconclusive and are not listed. This is one part of the list.
VALUE_TYPE: normalized growth

>>> reported_value("CCC(C)C(=O)O[C@H]1[C@H](O)C2C(CN3CC(C)CCC3[C@@]2(C)O)C2C[C@]34O[C@]5(O)C(OC(=O)C(C)(O)CC)CC[C@@]3(C)C5C(OC(C)=O)[C@@H](OC(C)=O)C4[C@@]21O (some centres undefined)")
"1.02 (inactive)"
>>> reported_value("CC1(C)CCC2(C(=O)O)CCC3(C)C(=CCC4C5(C)CCC(O)C(C)(C)C5C(O)CC43C)C2C1 (centres undefined)")
"1.01 (inactive)"
>>> reported_value("C[C@@H]1CC[C@]2(C(=O)O)CC[C@]3(C)C(=CCC4[C@@]5(C)CC[C@H](O)C(C)(C)C5CC[C@]43C)C2[C@H]1C (some centres undefined)")
"1.01 (inactive)"
>>> reported_value("N=C(N)SCCN")
"1 (inactive)"

* * *

Test: chemical genetic growth profiling, strain panel (AID 1159580);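 note: tested at 20 µM; growth read once vehicle control cultures reached saturation at 30 °C; 1 = growth at the plate median or of vehicle wells; lower values mean less growth of the strain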
Details: S. cerevisiae deletion strains, growth OD, locus YNL153C, strain GIM3, active compounds read low
The whole screen tested about 5,500 compounds, of which about 2,000 (36%) were called active. Another 18% or so got no clear call; they are omitted. The list shows a part of the results.
normalized growth overview
VALUE_TYPE: normalized growth

>>> reported_value("N=S(=O)(O)Cc1noc2ccccc12")
0.998
>>> reported_value("CC(C)(Sc1cc(C(C)(C)C)c(O)c(C(C)(C)C)c1)Sc1cc(C(C)(C)C)c(O)c(C(C)(C)C)c1")
1.03
>>> reported_value("CCCCCCCCCCCC[C@H](C(=O)O)[C@@H](C)C(=O)O")
0.994
>>> reported_value("CNCc1ccccc1")
0.978
>>> reported_value("CCOC(=O)OC(C)OC(=O)C1N2C(=O)C(NC(=O)[C@H](N)c3ccccc3)C2SC1(C)C (stereo partly specified)")
0.932
>>> reported_value("CCCC(CC(=O)O)(C(=O)O)c1ccccc1 (stereo unspecified)")
1
>>> reported_value("COC(=O)c1cccc(NC(=O)CC2C(=O)NCCN2C(=O)c2cccs2)c1 (stereo unspecified)")
1.01
>>> reported_value("COC(=O)Nc1nc2ccc(C(=O)c3ccccc3)cc2[nH]1")
0.0819
>>> reported_value("N#CC(NCc1ccccc1)c1ccc(Cl)c(Cl)c1 (stereo unspecified)")
0.98
>>> reported_value("COC(=O)Nc1nc2ccc(C(=O)c3cccs3)cc2[nH]1")
0.124
>>> reported_value("CC(C)(Oc1ccc(CCNC(=O)c2ccc(Cl)cc2)cc1)C(=O)O")
1.02

* * *

Assay: chemical genetic growth profiling, strain panel (AID 1159580);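 note: tested at 20 µM; growth read once vehicle control cultures reached saturation at 30 °C; 1 = growth at the plate median or of vehicle wells; lower values mean less growth of the strain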
Settings: S. cerevisiae deletion strains, growth OD, locus YIL066C, strain RNR3
Among all 5,500 compounds or so, about 2,000 (36%) were called active. About 18% were inconclusive and are not listed. Cut-off read from the data, not from the text of the source: active = normalized growth mostly below about 0.91 (no sharp cut-off); inconclusive = no clear call, values can overlap the other calls; inactive = mostly above about 0.92. This is one part of the list.
Possible outcomes: y = active, n = inactive

>>> discrete_label("Nc1c2c(nc3ccccc13)CCCC2O (configuration not stated)")
"n"
>>> discrete_label("O=c1[nH]cc(F)c(=O)[nH]1")
"y"
>>> discrete_label("NCCC(=O)N[C@@H](Cc1cnc[nH]1)C(=O)O")
"n"
>>> discrete_label("Nc1c2c(nc3ccccc13)CCCC2")
"n"
>>> discrete_label("Nc1ccc(S(=O)(=O)Nc2cnc3ccccc3n2)cc1")
"n"
>>> discrete_label("CO[C@@]12[C@@H]3NC3CN1C1=C(C(=O)C(N)=C(C)C1=O)[C@@H]2COC(N)=O (some centres not stated)")
"n"
>>> discrete_label("Nc1ccc(S(=O)(=O)Nc2ccnn2-c2ccccc2)cc1")
"n"
>>> discrete_label("C[C@@H]1C(=O)O[C@H]2[C@H]1CC[C@@]1(C)C=CC(=O)[C@@]3(C)O[C@@]213")
"n"
>>> discrete_label("COC(=O)C[C@H]1C(C)(C)C(=O)[C@@H]2CC3C4=CC(=O)O[C@@H](c5ccoc5)[C@]4(C)CCC3[C@@]1(C)C2=O (some centres not stated)")
"n"
>>> discrete_label("C[C@@H]1CC[C@H]2[C@@H](C)C(=O)O[C@@H]3O[C@@]4(C)CC[C@@H]1[C@]32OO4")
"y"
>>> discrete_label("COC(=O)Nc1nc2ccc(Sc3ccccc3)cc2[nH]1")
"n"
>>> discrete_label("Nc1c2ccccc2nc2ccccc12 (tested in a mixture with another compound)")
"y"
>>> discrete_label("C[C@@H]1CC[C@H]2[C@@H](C)C(O)O[C@@H]3O[C@@]4(C)CC[C@@H]1[C@]32OO4 (some centres not stated)")
"y"
>>> discrete_label("Nc1ccc(S(=O)(=O)c2ccc(N)cc2)cc1")
"n"
>>> discrete_label("Cc1ccc(S(=O)(=O)NC(=O)NN2CC3CCCC3C2)cc1 (configuration not stated)")
"n"
>>> discrete_label("O=c1cc(CO)occ1O")
"n"
>>> discrete_label("C[C@]12CCC(=O)C=C1CCC1C2[C@@H](O)C[C@@]2(C)C1CC[C@]2(O)C(=O)CO (some centres not stated)")
"n"
>>> discrete_label("C#C[C@]1(O)CCC2C3CCC4=C(CCC(=O)C4)C3CC[C@@]21C (some centres not stated)")
"n"
>>> discrete_label("Nc1ccccc1C(=O)CC(N)C(=O)O (configuration not stated)")
"n"
>>> discrete_label("C#C[C@]1(O)CCC2C3CCC4=CC(=O)CC[C@@H]4C3CC[C@@]21C (some centres not stated)")
"n"
>>> discrete_label("COC(=O)C[C@H]1C(C)(C)C2(O)OC34CC2C(=O)[C@]1(C)C3CC[C@]1(C)C4=CC(=O)O[C@H]1c1ccoc1 (some centres not stated)")
"n"
>>> discrete_label("CC1C(=O)OC2C1CCC1(C)C=CC(=O)C3(C)OC213 (configuration not stated)")
"n"

// data source = PubChem BioAssay AID1159580
